- testName: Pharmacokinetics of evocalcet after oral administration to male rats
- runParameters: Sprague-Dawley, rat, in vivo, po, 1 mg/kg, Cmax
propertyName: Cmax

Assign Cmax to the following record: C[C@@H](N[C@H]1CCN(c2ccc(CC(=O)O)cc2)C1)c1cccc2ccccc12
2190 ng/mL

###

- testName: Pharmacokinetics of evocalcet after oral administration to male rats
- runParameters: Sprague-Dawley, rat, in vivo, po, 1 mg/kg, tmax
propertyName: Tmax (min)
Report the value in min with no unit label.

Name the recorded Tmax of the item C[C@@H](N[C@H]1CCN(c2ccc(CC(=O)O)cc2)C1)c1cccc2ccccc12 in your answer.
48.6

###

- testName: Pharmacokinetics of evocalcet after oral administration to male rats
- runParameters: Sprague-Dawley, rat, in vivo, po, 1 mg/kg, F (bioavailability)
propertyName: bioavailability (%)
Use % as the unit, but write only the number.

Please report bioavailability for the following compound: C[C@@H](N[C@H]1CCN(c2ccc(CC(=O)O)cc2)C1)c1cccc2ccccc12
84.2

###

- targetUnderTest: CYP2C19 (Homo sapiens, UniProt P33261)
- Sequence (P33261 whole entry): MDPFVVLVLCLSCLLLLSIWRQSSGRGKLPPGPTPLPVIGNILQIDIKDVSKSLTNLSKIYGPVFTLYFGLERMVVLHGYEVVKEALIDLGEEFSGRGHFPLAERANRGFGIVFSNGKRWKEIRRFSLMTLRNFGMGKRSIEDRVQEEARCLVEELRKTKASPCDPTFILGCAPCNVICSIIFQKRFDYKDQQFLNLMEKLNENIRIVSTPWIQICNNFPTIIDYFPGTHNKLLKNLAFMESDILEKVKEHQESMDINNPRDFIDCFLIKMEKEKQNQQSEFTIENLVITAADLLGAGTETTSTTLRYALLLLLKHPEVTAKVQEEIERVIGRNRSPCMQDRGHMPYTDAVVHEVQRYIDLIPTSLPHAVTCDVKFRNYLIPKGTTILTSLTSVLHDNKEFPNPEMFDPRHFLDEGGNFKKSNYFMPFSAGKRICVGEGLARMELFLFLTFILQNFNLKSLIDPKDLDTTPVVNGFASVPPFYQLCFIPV
propertyName: IC50

Supply recorded IC50 for C[C@@H](N[C@H]1CCN(c2ccc(CC(=O)O)cc2)C1)c1cccc2ccccc12 [evocalcet] here.
> 50 µM

###

- testName: Pharmacokinetics of evocalcet after oral administration to male rats
- runParameters: Sprague-Dawley, rat, in vivo, po, 0.3 mg/kg, tmax
propertyName: Tmax
Hi, when you answer, please include the unit after the number. Thanks!

Could you please provide reported Tmax for C[C@@H](N[C@H]1CCN(c2ccc(CC(=O)O)cc2)C1)c1cccc2ccccc12 [evocalcet] ? Thanks!
22.8 min

###

- Test system: CYP3A4/5
- testName: CYP inhibition assay in human liver microsomes
- Format: in vitro ADME
- runParameters: no pre-incubation, read-out: IC50 direct inhibition of CYP3A4/5
propertyName: IC50

Check CYP3A4/5 data and give IC50 for C[C@@H](N[C@H]1CCN(c2ccc(CC(=O)O)cc2)C1)c1cccc2ccccc12 [evocalcet] .
> 50 µM

###

- targetUnderTest: UniProtKB P11712
- Sequence (P11712 whole entry): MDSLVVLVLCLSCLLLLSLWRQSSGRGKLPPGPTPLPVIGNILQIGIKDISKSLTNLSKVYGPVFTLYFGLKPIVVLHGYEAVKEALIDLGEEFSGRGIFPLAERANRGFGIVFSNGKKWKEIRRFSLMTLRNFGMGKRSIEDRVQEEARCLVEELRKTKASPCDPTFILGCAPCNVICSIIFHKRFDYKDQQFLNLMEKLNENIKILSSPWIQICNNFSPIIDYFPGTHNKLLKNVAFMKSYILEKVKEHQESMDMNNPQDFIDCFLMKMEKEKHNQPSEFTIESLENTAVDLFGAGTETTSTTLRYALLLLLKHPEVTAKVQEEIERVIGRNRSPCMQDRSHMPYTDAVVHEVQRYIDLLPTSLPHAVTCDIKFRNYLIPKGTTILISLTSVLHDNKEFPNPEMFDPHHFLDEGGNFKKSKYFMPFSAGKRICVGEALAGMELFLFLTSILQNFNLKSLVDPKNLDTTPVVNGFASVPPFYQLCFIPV
propertyName: IC50

State its IC50: C[C@@H](N[C@H]1CCN(c2ccc(CC(=O)O)cc2)C1)c1cccc2ccccc12 [evocalcet]
> 50 µM

###

- testName: Pharmacokinetics of evocalcet after oral administration to male rats
- runParameters: Sprague-Dawley, rat, in vivo, po, 0.1 mg/kg, tmax
- Procedure: The plasma concentrations of evocalcet were determined after single or repeated oral administration in both normal and 5/6 Nx rats. The pharmacokinetic (PK) parameters of the rat plasma concentrations were calculated individually using Phoenix WinNonlin 6.2, a PK analysis software program (Pharsight Corporation, Sunnyvale, CA).
propertyName: Tmax (min)
Write the number in min without appending the unit.

For the molecule C[C@@H](N[C@H]1CCN(c2ccc(CC(=O)O)cc2)C1)c1cccc2ccccc12 [evocalcet] , give its measured Tmax value.
15

###

- testName: Pharmacokinetics of evocalcet after oral administration to male rats
- runParameters: Sprague-Dawley, rat, in vivo, po, 0.1 mg/kg, Cmax
- Protocol: The plasma concentrations of evocalcet were determined after single or repeated oral administration in both normal and 5/6 Nx rats. The pharmacokinetic (PK) parameters of the rat plasma concentrations were calculated individually using Phoenix WinNonlin 6.2, a PK analysis software program (Pharsight Corporation, Sunnyvale, CA).
propertyName: Cmax (ng/mL)
Write it as a number; the unit ng/mL goes unstated.

Assign Cmax to the following record: C[C@@H](N[C@H]1CCN(c2ccc(CC(=O)O)cc2)C1)c1cccc2ccccc12
222

###

- testName: Pharmacokinetics of evocalcet after oral administration to male rats
- runParameters: Sprague-Dawley, rat, in vivo, po, 0.3 mg/kg, AUC0-∞
propertyName: AUC(0-inf) (ng·h/mL)
Numbers only; they are read as ng·h/mL.

Write down AUC(0-inf) measured for item C[C@@H](N[C@H]1CCN(c2ccc(CC(=O)O)cc2)C1)c1cccc2ccccc12
2580

###

- testName: Pharmacokinetics of evocalcet after oral administration to male rats
- runParameters: Sprague-Dawley, rat, in vivo, po, 0.3 mg/kg, Cmax
propertyName: Cmax (ng/mL)
Report only the number, with the unit ng/mL understood.

Please report the measured Cmax for C[C@@H](N[C@H]1CCN(c2ccc(CC(=O)O)cc2)C1)c1cccc2ccccc12
600

###

- testName: Pharmacokinetics of evocalcet after oral administration to male rats
- runParameters: rat, in vivo, normal rats, single oral dose 1 mg/kg, mean, read-out: t1/2 (converted)
propertyName: half-life (h)
Your answer is read as h, so omit the unit and give the number.

Please give the documented half-life of C[C@@H](N[C@H]1CCN(c2ccc(CC(=O)O)cc2)C1)c1cccc2ccccc12
6.13

###

- targetUnderTest: human CaR (Homo sapiens, UniProt P41180)
- Sequence (P41180 20-1078): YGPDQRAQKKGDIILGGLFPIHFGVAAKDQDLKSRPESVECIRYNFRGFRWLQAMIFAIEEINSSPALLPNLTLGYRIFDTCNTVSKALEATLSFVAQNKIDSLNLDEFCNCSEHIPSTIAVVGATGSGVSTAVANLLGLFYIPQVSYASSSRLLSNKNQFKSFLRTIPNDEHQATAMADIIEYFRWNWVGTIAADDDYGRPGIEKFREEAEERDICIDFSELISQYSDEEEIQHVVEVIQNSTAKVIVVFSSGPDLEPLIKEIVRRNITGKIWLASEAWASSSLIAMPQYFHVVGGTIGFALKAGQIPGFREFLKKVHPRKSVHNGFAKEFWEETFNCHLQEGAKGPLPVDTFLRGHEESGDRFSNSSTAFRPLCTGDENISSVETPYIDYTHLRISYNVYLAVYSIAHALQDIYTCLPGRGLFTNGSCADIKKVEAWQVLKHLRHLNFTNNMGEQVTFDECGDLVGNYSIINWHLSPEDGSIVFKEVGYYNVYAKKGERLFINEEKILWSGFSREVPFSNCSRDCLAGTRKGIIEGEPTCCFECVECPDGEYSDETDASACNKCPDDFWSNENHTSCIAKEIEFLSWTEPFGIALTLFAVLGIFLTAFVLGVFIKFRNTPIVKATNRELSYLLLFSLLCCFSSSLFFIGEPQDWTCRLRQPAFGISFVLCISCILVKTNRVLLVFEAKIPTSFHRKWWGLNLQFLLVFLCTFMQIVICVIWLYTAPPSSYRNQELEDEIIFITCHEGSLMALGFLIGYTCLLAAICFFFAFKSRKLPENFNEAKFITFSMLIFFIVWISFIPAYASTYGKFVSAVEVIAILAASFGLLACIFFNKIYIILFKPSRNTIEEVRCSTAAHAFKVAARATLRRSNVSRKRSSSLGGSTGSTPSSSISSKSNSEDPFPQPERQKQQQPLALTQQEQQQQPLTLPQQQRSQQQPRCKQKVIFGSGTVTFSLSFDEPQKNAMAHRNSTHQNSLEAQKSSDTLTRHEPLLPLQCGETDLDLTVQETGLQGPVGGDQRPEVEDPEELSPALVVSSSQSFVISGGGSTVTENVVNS
- testName: Agonistic activity studies with HEK293 cells stably expressing human CaR (cytoplasmic Ca2+ concentration)
- runParameters: hCaR-HEK293 cells; read-out: EC50 for [Ca^2+]i
propertyName: EC50 (µM)
Answer format: numeric, µM implied, no suffix.

Using the record for C[C@@H](N[C@H]1CCN(c2ccc(CC(=O)O)cc2)C1)c1cccc2ccccc12 [evocalcet] , state its measured EC50.
0.0927

###

- testName: Pharmacokinetics of evocalcet after oral administration to male rats
- runParameters: Sprague-Dawley, rat, in vivo, po, 0.1 mg/kg, F (bioavailability)
propertyName: bioavailability (%)
Give just the number in %; leave the unit off.

Find the measured bioavailability of C[C@@H](N[C@H]1CCN(c2ccc(CC(=O)O)cc2)C1)c1cccc2ccccc12 [evocalcet] and report it.
81.6

###

- testName: Pharmacokinetics of evocalcet after oral administration to male rats
- runParameters: rat, in vivo, po, 0.1 mg/kg, tmax
- Description: The plasma concentrations of evocalcet were determined after single or repeated oral administration in both normal and 5/6 Nx rats. The pharmacokinetic (PK) parameters of the rat plasma concentrations were calculated individually using Phoenix WinNonlin 6.2, a PK analysis software program (Pharsight Corporation, Sunnyvale, CA).
propertyName: Tmax

Return Tmax for the following compound: C[C@@H](N[C@H]1CCN(c2ccc(CC(=O)O)cc2)C1)c1cccc2ccccc12 [evocalcet]
15 min

###

- testName: Pharmacokinetics of evocalcet after oral administration to male rats
- runParameters: rat, in vivo, po, 1 mg/kg, Cmax
propertyName: Cmax (ng/mL)
Number only, in ng/mL; omit the unit.

Tell me Cmax reported for C[C@@H](N[C@H]1CCN(c2ccc(CC(=O)O)cc2)C1)c1cccc2ccccc12
1810

###

- testName: Pharmacokinetics of evocalcet after oral administration to male rats
- runParameters: rat, in vivo, po, 1 mg/kg, t1/2
- Description: The plasma concentrations of evocalcet were determined after single or repeated oral administration in both normal and 5/6 Nx rats. The pharmacokinetic (PK) parameters of the rat plasma concentrations were calculated individually using Phoenix WinNonlin 6.2, a PK analysis software program (Pharsight Corporation, Sunnyvale, CA).
propertyName: half-life (h)
Hi! Could you send only the number? It should be in h, unit omitted.

Given the compound C[C@@H](N[C@H]1CCN(c2ccc(CC(=O)O)cc2)C1)c1cccc2ccccc12 , write its reported half-life.
6.99
